# Test system: NCI-H23 lung
# assay_notes: NCI-60 one-dose screen, 48 h (100 = growth as untreated, 0 = no growth, -100 = all killed)
# conditions: 10 µM unless noted
This is part of a sample that, as a whole, favours compounds with a hit. Of some 83,000 tested, about 20% had one in any assay.
parameter: growth (%)
Write it as a number; the unit % goes unstated.

>>> assay_value("N=C1C=C(N)C(=O)c2ccccc21")
-82.3

Entry under test: `CC1(C)CCCC2=C1C(=O)N(SC(Cl)(Cl)Cl)C2=O` . Its growth was 101

Entry under test: `CC(C)(C)c1ccc(CCO)cc1` . Its growth was 97.5

Entry under test: CC(CSc1n[nH]c(=S)s1)c1ccccc1 (stereo unspecified) . Its growth was 106

Entry under test: `CCCCCCCCCCCCCCCCSC(=NCC)NCC` . Its growth was 39.4

---

The following molecules are listed with their measured growth values.
# Tested on: HOP-92 NSCLC
# assay_notes: NCI-60 one-dose screen, 48 h (100 = growth as untreated, 0 = no growth, -100 = all killed)
# conditions: 10 µM unless noted
# Experimental: Growth inhibition of the HOP-92 human Non-Small Cell Lung tumor cell line is measured as a screen for anti-cancer activity. Cells are grown in 96 well plates and exposed to the test compound for 48 hours. Compounds are tested at a single concentration, which is 10^-5 M for most compounds. The reported endpoint is percent growth (GI% or GIPRCNT), where numbers from 0 - 100% represent growth inhibition, and numbers from -100% - 0 represent cell death. […]
About 83,000 compounds went through this panel and 20% of them were active in at least one assay; those are over-represented in the sample as a whole.
Write it as a number; the unit % goes unstated.

Guide cases for growth, answers given:
>>> assay_value("COC1=CC(=O)c2c(O)c3c(c(O)c2C1=O)CC(C)(O)OC3 (centres undefined)")
-16.4
>>> assay_value("C/C(=N\\NC(=S)N1CC2CCC(CC2)C1)c1ccccn1")
34.1
>>> assay_value("Cc1nc(Sc2nc3ccc([N+](=O)[O-])cc3s2)sc1C")
1.28
>>> assay_value("O=[N+]([O-])c1ccc([I+]c2ccccc2)cc1")
60.5
>>> assay_value("COC(=O)c1cc([N+](=O)[O-])cc([N+](=O)[O-])c1Cl")
99.7

Next up:
Entry under test: `CCCOS(=O)(=O)c1ccccc1` . Its growth was 76.1

---

# Tested on: SK-MEL-28 melanoma
# assay_notes: NCI-60 one-dose screen, 48 h (100 = growth as untreated, 0 = no growth, -100 = all killed)
# conditions: 10 µM unless noted
# Description: Growth inhibition of the SK-MEL-28 human tumor cell line is measured as a screen for anti-cancer activity. Cells are grown in 96 well plates and exposed to the test compound for 48 hours. Compounds are tested at a single concentration, which is 10^-5 M for most compounds. The reported endpoint is percent growth (GI% or GIPRCNT), where numbers from 0 - 100% represent growth inhibition, and numbers from -100% - 0 represent cell death. For example, a value of 40 represents 60% growth inhibition. […]
About 83,000 compounds went through this panel and 20% of them were active in at least one assay; those are over-represented in the sample as a whole.
The following compounds are listed with their measured growth values.
Write it as a number; the unit % goes unstated.

Guide cases for growth, answers given:
>>> assay_value("Cc1cccc2c(N)c3ccccc3nc12")
-41.1
>>> assay_value("COc1ccc(NC(=O)/C(=C/N2C(=O)/C(=C/c3ccc(OC)c(OC)c3)NC2=S)C(C)=O)cc1")
77.2
>>> assay_value("O=C(CCl)N(c1ccccc1)c1ccccc1")
110
>>> assay_value("CC(C)(C)c1ccc(O)c(Br)c1")
102
>>> assay_value("CN(C)c1ccc2cc3c(cc2c1)Oc1ccccc1N3.[Cl][Zn][Cl]")
111

Entry under test: `CC(C)N=C(N)/N=C(\N)Nc1ccc2ccc3ccccc3c2c1` . Its growth was -78.2

---

# System: TK-10 renal
# assay_notes: NCI-60 one-dose screen, 48 h (100 = growth as untreated, 0 = no growth, -100 = all killed)
# conditions: 10 µM unless noted
The panel holds about 83,000 compounds, 20% with a hit somewhere; the sample as a whole holds those more often.
growth vs 80%: less than gives met; not less than gives not met.

Please review the entries below; each comes with its answer.
>>> answer_label("Cn1ccc(=Nc2ccc(NC(=O)c3ccc(N=c4ccn(C)c5ccc([N+](=O)[O-])cc45)cc3)cc2)cc1")
"not met"
>>> answer_label("CCCCCCCCCCCC[n+]1ccc(CCCCCCCCC)cc1")
"met"
>>> answer_label("CCCCCCCCCCCC[S+](C)CC(=O)[O-] (configuration not stated)")
"met"
>>> answer_label("O=[N+]([O-])c1ccc(Oc2ccccc2Cl)c([N+](=O)[O-])c1")
"not met"
>>> answer_label("CN(C)CCSC1=Nc2ccc(Cl)cc2C(c2ccccc2Cl)N(C)C1 (configuration not stated)")
"met"
>>> answer_label("CC1(O)CCCCCC1")
"not met"
>>> answer_label("OCCOSCCO")
"not met"
>>> answer_label("COc1ccc2nc3cc(Cl)ccc3c(NCCCCCN3CCCCC3)c2c1")
"met"
>>> answer_label("CN(C)c1ccc(C(C#N)(c2ccccc2)c2ccc(N(C)C)cc2)cc1")
"met"
>>> answer_label("COC(=O)c1ccc(=O)c2nc3/c(=C/O)c(O)cc(=O)c3[nH]c12")
"met"

Next compound, please.
Query: Dear colleague, could you confirm whether growth of `Oc1c(Cl)cc(Cl)cc1C(c1cc(Cl)cc(Cl)c1O)C(Cl)(Cl)Cl` falls below 80%? Thanks.
Result: met

---

# Tested on: BT-549 breast
# assay_notes: NCI-60 one-dose screen, 48 h (100 = growth as untreated, 0 = no growth, -100 = all killed)
# conditions: 10 µM unless noted
Compounds without any hit were thinned out: in the full panel of roughly 83,000, 20% have a hit.
Output true (1) for growth not less than 80%; output false (0) otherwise.

Please review the entries below; each comes with its answer.
>>> answer_label("CN(C)c1ccc(C(C#N)(c2ccccc2)c2ccc(N(C)C)cc2)cc1")
"false (0)"
>>> answer_label("O=C(NOC(=O)c1ccccc1)c1ccccc1")
"true (1)"

Query: Is reported growth greater than or equal to 80% here: `S=C=Nc1ccc(N2CCOCC2)cc1`
Result: true (1)

Query: Is reported growth greater than or equal to 80% here: `O=C(/C(Cl)=N/O)c1ccc(-c2ccccc2)cc1`
Result: true (1)

Query: Is reported growth greater than or equal to 80% here: `CCNc1nnnn1CC`
Result: true (1)

Query: Is reported growth greater than or equal to 80% here: `O=C(Cc1nc2cc(Cl)c(Cl)cc2nc1CC(=O)c1cccnc1)c1cccnc1`
Result: false (0)

Query: Is reported growth greater than or equal to 80% here: `S=C(S)OCN1CCOCC1`
Result: true (1)

Query: Is reported growth greater than or equal to 80% here: `CCCCCCCCCCCCSC(=N)N`
Result: false (0)

Query: Is reported growth greater than or equal to 80% here: `Cc1cc(N/N=C/c2ccccn2)nc2ccccc12`
Result: false (0)

Query: Is reported growth greater than or equal to 80% here: `S=C1SCN(Cc2cccs2)CN1Cc1cccs1`
Result: true (1)

Query: Is reported growth greater than or equal to 80% here: `O=C1CSC(=S)N1Cc1cccnc1`
Result: false (0)

Query: Is reported growth greater than or equal to 80% here: `COC(=O)C(=[N+]=[N-])C(=O)c1ccc([N+](=O)[O-])o1`
Result: true (1)

Query: Is reported growth greater than or equal to 80% here: `Cc1nn(CCO)c(C)c1N=[N+]([O-])c1c(C)nn(CCO)c1C`
Result: false (0)

Query: Is reported growth greater than or equal to 80% here: CCCCCCCCCCCC[n+]1ccccc1 (tested in a mixture with another compound)
Result: false (0)

Query: Is reported growth greater than or equal to 80% here: OC(CSc1ccccc1)CN1CCN(c2ccc(Cl)cc2)CC1 (stereo unspecified)
Result: true (1)

Query: Is reported growth greater than or equal to 80% here: `O=S(=O)(O)c1cnccn1`
Result: true (1)

Query: Is reported growth greater than or equal to 80% here: `COC(=O)c1cc([N+](=O)[O-])cc([N+](=O)[O-])c1Cl`
Result: true (1)

Query: Is reported growth greater than or equal to 80% here: CCOC(=O)C1(C)CCCC1N (stereo unspecified)
Result: true (1)

Query: Is reported growth greater than or equal to 80% here: `CCN(CC)c1ccc(/C=C\C(=O)c2ccc(NC(C)=O)cc2)cc1`
Result: true (1)

Query: Is reported growth greater than or equal to 80% here: `CCOc1cc(F)c([N+](=O)[O-])cc1[N+](=O)[O-]`
Result: true (1)

Query: Is reported growth greater than or equal to 80% here: `O=C1C=CC(=O)N1c1cc(Cl)c(Cl)cc1Cl`
Result: true (1)

Query: Is reported growth greater than or equal to 80% here: `COc1ccc(/C=C2/C(=O)ON=C2C)cc1`
Result: true (1)

Query: Is reported growth greater than or equal to 80% here: CC(=O)C1Cc2ccccc2C1=O (stereo unspecified)
Result: true (1)

Query: Is reported growth greater than or equal to 80% here: `CCCCCCCCCCCCCCCCSC(=NCC)NCC`
Result: false (0)

Query: Is reported growth greater than or equal to 80% here: `N#Cc1c2ccccc2nc2ccccc12`
Result: true (1)

Query: Is reported growth greater than or equal to 80% here: CCC1C[N+]2=C(c3cc(OC)c(OC)cc3CC2)c2c1cc1n2CCc2cc(OC)c(OC)cc2-1 (stereo unspecified)
Result: false (0)

Query: Is reported growth greater than or equal to 80% here: `Cc1cc2cccnc2c2ncccc12`
Result: false (0)

Query: Is reported growth greater than or equal to 80% here: `O=C(Nc1cccc(C(F)(F)F)c1)Oc1ccc(Cl)c2cccnc12`
Result: false (0)

Query: Is reported growth greater than or equal to 80% here: `CN=C(N)N/N=C(\C)c1ccc2c(c1)Cc1ccccc1-2`
Result: false (0)

Query: Is reported growth greater than or equal to 80% here: CCCCCCCCCCCC(=O)OC(C)C(=O)NCCCC (stereo unspecified)
Result: true (1)
